Data provenance is patent US9346798B2.

assay.target: Nav 1.7 (Homo sapiens (Human))
Sequence (Q15858 whole entry): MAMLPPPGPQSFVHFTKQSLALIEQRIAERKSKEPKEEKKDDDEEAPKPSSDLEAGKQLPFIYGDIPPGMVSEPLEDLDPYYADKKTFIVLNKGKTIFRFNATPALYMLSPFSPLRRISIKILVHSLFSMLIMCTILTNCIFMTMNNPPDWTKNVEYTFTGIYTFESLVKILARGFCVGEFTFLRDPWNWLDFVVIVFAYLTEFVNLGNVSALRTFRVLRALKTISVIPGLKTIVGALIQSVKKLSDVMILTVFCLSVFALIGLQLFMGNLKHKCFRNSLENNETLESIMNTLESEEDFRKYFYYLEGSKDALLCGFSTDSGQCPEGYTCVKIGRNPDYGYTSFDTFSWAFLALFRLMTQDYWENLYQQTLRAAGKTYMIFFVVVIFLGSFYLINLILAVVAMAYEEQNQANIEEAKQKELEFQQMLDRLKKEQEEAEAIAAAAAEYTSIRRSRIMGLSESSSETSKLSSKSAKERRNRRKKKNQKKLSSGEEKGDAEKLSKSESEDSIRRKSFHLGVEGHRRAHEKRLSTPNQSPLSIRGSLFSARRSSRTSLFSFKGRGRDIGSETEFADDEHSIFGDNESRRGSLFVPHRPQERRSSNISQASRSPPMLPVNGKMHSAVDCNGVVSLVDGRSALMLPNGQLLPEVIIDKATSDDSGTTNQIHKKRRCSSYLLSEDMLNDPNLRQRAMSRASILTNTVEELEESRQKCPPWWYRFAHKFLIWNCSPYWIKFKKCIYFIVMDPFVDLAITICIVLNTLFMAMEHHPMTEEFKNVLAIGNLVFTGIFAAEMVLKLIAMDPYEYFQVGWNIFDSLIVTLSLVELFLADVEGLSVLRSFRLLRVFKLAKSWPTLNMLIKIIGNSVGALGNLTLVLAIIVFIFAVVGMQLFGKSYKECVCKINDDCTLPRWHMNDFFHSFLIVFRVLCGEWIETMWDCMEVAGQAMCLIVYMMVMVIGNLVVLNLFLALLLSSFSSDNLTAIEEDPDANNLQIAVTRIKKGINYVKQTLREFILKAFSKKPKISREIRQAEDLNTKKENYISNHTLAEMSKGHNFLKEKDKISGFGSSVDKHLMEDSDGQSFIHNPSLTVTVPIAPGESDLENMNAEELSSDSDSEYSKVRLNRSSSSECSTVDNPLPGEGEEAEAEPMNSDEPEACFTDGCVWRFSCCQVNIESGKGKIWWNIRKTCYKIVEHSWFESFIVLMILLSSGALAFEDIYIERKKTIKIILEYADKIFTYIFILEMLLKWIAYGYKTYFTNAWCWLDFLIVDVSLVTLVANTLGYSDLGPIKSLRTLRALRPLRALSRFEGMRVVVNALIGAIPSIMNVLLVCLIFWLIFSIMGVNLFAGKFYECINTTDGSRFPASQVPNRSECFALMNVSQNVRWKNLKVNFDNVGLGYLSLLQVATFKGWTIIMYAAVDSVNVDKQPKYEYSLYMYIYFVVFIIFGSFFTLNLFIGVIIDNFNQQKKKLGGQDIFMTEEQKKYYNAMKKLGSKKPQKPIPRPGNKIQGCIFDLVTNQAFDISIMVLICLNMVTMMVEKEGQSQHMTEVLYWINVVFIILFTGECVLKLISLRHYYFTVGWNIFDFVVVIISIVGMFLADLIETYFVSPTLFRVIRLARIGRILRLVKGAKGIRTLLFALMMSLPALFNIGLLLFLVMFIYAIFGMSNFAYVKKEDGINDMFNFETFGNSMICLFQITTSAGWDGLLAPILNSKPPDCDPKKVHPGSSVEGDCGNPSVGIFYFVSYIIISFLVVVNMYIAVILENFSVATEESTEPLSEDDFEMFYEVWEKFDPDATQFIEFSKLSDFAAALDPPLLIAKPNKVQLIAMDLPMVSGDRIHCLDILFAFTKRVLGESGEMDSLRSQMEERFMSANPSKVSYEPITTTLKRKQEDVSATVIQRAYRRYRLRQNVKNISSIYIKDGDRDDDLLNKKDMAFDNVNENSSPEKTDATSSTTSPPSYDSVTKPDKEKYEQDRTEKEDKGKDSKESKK
assay.overview: Nav 1.7 in vitro assay, IonWorks Quattro (IWQ) population patch-clamp
Assay type: cell-based
condition.details: HEK 293 cells stably transfected with Nav 1.7; 26th pulse to -20 mV
pIC50: −log10 of the molar value.
attribute.measured: pIC50

# annotated cases, reported pIC50 shown
N#Cc1cc(C(F)(F)F)ccc1N1CCOc2cc(S(=O)(=O)Nc3ccncn3)ccc21 [Example 89] :: 7.55
COc1ccc(C(F)(F)F)cc1N1CCOc2cc(S(=O)(=O)Nc3nccs3)ccc21 [Example 114] :: 7.39

1. COc1ccncc1N1CCOc2cc(S(=O)(=O)Nc3nccs3)ccc21 [Example 190]
2. C[C@@H]1CN(c2ccc(C(F)(F)F)cc2C#N)c2ccc(S(=O)(=O)Nc3nccs3)cc2O1 (single isomer, unassigned) [Example 95]
Ask: Consider entries 1 and 2 . Which has the numerically lower pIC50? Your answer should be the label attached to the chosen record.
Reply: 1
(1: 6.51, 2: 7.15)
